Source of measurements: PubChem BioAssay AID1963870

Tested on: 292921-168-R-J2-PDC KRAS tumor spheroid viability;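 further: drug exposure lasted seven days after spheroids formed for three days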
Test summary: Anticancer human tumor 292921-168-R-J2-PDC patient-derived pancreatic carcinoma cell line growth inhibition [KRAS2]; active means viability on the fitted dose curve at most 10% of control; inactive means the rest
Condition: second compound 3.16 µM; first compound 0.1 µM; spheroids with HUVEC and MSC
Your answer must be one of the following: YES for active, NO for inactive

>>> label("COC(=O)c1ccc2c(C(=Nc3ccc(N(C)C(=O)CN4CCN(C)CC4)cc3)c3ccccc3)c(O)[nH]c2c1 + CC1OCC2(CCN(c3cnc(Sc4ccnc(N)c4Cl)c(N)n3)CC2)C1N")
"NO"
>>> label("Cn1nccc1Nc1nccc(-c2cc3c(s2)C(C)(C)N(CCN2CCOCC2)C3=O)n1 + CC1OCC2(CCN(c3cnc(Sc4ccnc(N)c4Cl)c(N)n3)CC2)C1N")
"NO"
>>> label("CC(=O)OC12COC1CC(O)C1(C)C(=O)C(O)C3=C(C)C(OC(=O)C(O)C(NC(=O)OC(C)(C)C)c4ccccc4)CC(O)(C(OC(=O)c4ccccc4)C21)C3(C)C (stereo not given) + CC1OCC2(CCN(c3cnc(Sc4ccnc(N)c4Cl)c(N)n3)CC2)C1N")
"NO"
>>> label("COc1cc2nccc(Oc3ccc(NC(=O)C4(C(=O)Nc5ccc(F)cc5)CC4)cc3)c2cc1OC + C=CC(=O)N1CCN(c2nc(OCC3CCCN3C)nc3c2CCN(c2cccc4cccc(C)c24)C3)CC1CC#N")
"YES"

Continue with the next compound.
Query :: Each compound tested received a call. Report the one for COC(=O)c1ccc2c(C(=Nc3ccc(N(C)C(=O)CN4CCN(C)CC4)cc3)c3ccccc3)c(O)[nH]c2c1 + COc1cc2nc(C)nc(NC(C)c3cc(N)cc(C(F)(F)F)c3)c2cc1OC1CCOC1 .
Result :: NO
